The origin of these recorded values is patent US7115619B2.

assay: Growth inhibition, sulforhodamine B (SRB) assay, CH1; type: cell-based; settings: human, CH1 ovarian carcinoma cells, 96 hr incubation, read-out: Cytotoxicity IC50 CH1
READOUT: log10(IC50 at 96 h) (log10 of the value in nM)
Please be aware that the numbers have been log10-transformed from IC50 at 96 h in nM.

Solved entries (count: 8):
STRUCTURE_SMILES	READOUT	REPORTED
COc1cc2c3c([n+](C)c4ccccc4c3c1)-c1ccccc1N2C	log10(IC50 at 96 h)	2.11
COc1cc2c3c([n+](C)c4ccccc4c3c1)-c1ccc(Cl)cc1N2C	log10(IC50 at 96 h)	2.48
CN1c2cc(Cl)ccc2-c2c3c1cccc3c1cc(Cl)ccc1[n+]2C	log10(IC50 at 96 h)	3.58
Cc1cc2c3c([n+](C)c4ccc(F)cc4c3c1)-c1cc(F)ccc1N2C	log10(IC50 at 96 h)	2.70
COC(=O)/C=C/c1ccc2c(c1)c1cccc3c1c([n+]2C)-c1ccccc1N3C	log10(IC50 at 96 h)	3.34
Cc1cc2c3c([n+](C)c4ccc(Cl)cc4c3c1)-c1cc(Cl)ccc1N2C	log10(IC50 at 96 h)	3.15
CN1c2ccccc2-c2c3c1cccc3c1cc(/C=C/C(=O)N3CCOCC3)ccc1[n+]2C	log10(IC50 at 96 h)	4.25
Cc1cc2c3c([n+](C)c4ccccc4c3c1)-c1ccccc1N2C	log10(IC50 at 96 h)	2.57

Record summary for COC(=O)Oc1cc2c3c([n+](C)c4ccccc4c3c1)-c1ccccc1N2C : reported log10(IC50 at 96 h) = 2.30
